Data origin, for the record: ChEMBL document CHEMBL1130480

Species: Oryctolagus cuniculus
Assay Remarks: Inhibition of Protein phosphatase 2A1 (PP2A1) at 0.1 mM
Quick rule: inhibition of at least 80% means 1.0, below that means 0.0.

Examples with answers:
O=C1OC(=O)C2C3C=CC(O3)C12 (configuration not stated): 1.0
CC(=O)OCC12C=CC(O1)C(C(=O)O)C2C(=O)O (configuration not stated): 0.0
O=C1OC(=O)C2C3OC(CC3COC3CCCCC3)C12 (configuration not stated): 0.0

Incoming: Assess whether reported inhibition for CC(=O)OCC1=CC2OC1C(C(=O)O)C2C(=O)O (configuration not stated) sits at 80% or higher.
Outgoing: 0.0

Incoming: Assess whether reported inhibition for O=C1OC(=O)C2C3CCC(O3)C12 (configuration not stated) sits at 80% or higher.
Outgoing: 1.0

Incoming: Assess whether reported inhibition for O=C(O)C1C2CCC3(COC(=O)C13)O2 (configuration not stated) sits at 80% or higher.
Outgoing: 0.0
